experiment: NCI Yeast Anticancer Drug Screen. Data for the cln2 rad14 strain (AID 165);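 further: 0% = growth equal to vehicle treated cultures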
condition: S. cerevisiae cln2 rad14 strain, at 50.0 µM
This is part of a sample that, as a whole, favours compounds with a hit. Of some 79,000 tested, about 15% had one in any assay. Calls of active or inactive are those of the source. No stated cut-off is given here; in the data, active means growth inhibition above about 70%; inactive means the rest.
Can you answer with just one of these options? 1 = active, -1 = inactive

For `CC(=O)Nc1ccc(C(C)(C)c2ccc(C)cc2)cc1` , which call appears in the assay record?
-1

For `CCOC(=O)C(=Cc1ccc(OC)cc1)C(=O)OCC` , which call appears in the assay record?
-1

More entries:
For CC1C=CC(C)C2C(=O)C3C(C)C=CC(C)C3C(=O)C12 (stereo not given) , which call appears in the assay record?
-1

For `CCN(CC)CCSCCCNc1cc(OC)cc2cccnc12` , which call appears in the assay record?
1

For CCCCCCCCCCCC[N+](C)(C)C (tested in a mixture with another compound) , which call appears in the assay record?
-1

The reported measurements were obtained from PubChem BioAssay (NCI).
